Give measured inhibition for each item. Keep answers brief.
# assay-target: Solute carrier family 2, facilitated glucose transporter member 1 (Homo sapiens) (UniProt P11166)
# Sequence (P11166 whole entry): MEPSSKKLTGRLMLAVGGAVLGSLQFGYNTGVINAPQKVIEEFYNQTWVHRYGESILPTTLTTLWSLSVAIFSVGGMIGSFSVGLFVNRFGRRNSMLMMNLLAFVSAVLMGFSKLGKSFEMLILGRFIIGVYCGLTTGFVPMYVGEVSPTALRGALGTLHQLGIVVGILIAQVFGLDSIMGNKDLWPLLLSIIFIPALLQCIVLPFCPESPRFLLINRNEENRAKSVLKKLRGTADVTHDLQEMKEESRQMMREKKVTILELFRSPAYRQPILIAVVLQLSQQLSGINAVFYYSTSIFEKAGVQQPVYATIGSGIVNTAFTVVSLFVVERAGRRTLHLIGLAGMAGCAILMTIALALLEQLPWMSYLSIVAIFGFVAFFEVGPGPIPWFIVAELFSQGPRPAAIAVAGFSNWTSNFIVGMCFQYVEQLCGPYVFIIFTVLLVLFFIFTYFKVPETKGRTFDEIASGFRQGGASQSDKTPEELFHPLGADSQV
# test-summary: ST_JUDE_LEISH: Cytotoxicity at 2uM final concentration against transgenic Leishmania Mexicana promastigotes LmGLUT1 that are glucose transport deficient and complemented with the human glucose transporter GLUT1. Activity is measured by DNA content using SYBR green in vitro
# Format: functional
Give just the number in %; leave the unit off.

Need inhibition, item COc1ccc2[nH]cc(C3CCN(CCC4CCN(C(=O)/C=C/c5ccc(Cl)c(Cl)c5)CC4)CC3)c2c1
2.88

Need inhibition, item CCOC(=O)NOC(C(=O)O)c1ccccc1 (stereo not given)
2.01

Need inhibition, item CC(C)c1ccc(C2CCN(CCCCNC(=O)c3ccc(NC(=O)c4ccc(C(F)(F)F)cc4)cc3)CC2)c(O)c1
4.75

Need inhibition, item c1ccc(CN2CCC(Nc3ccc(-c4c[nH]nc4-c4ccccn4)nc3)CC2)cc1
4.32

Need inhibition, item Fc1ccccc1C=NN=c1cc[nH]c2ccccc12
4.61

Need inhibition, item O=C(N[C@@H](CC1CCCCC1)C(=O)NCCN1CCCCC1)c1ccc(O)c(-c2ccc(Cl)c(Cl)c2)c1
0.75

Need inhibition, item CC(C)C(C(=O)Nc1ccc(S(=O)(=O)N(C)C)cc1)c1ccc(Cl)cc1 (stereo not given)
-2.78

Need inhibition, item Cc1c[nH]c(CCNC(=O)c2cc(-c3ccc(Cl)cc3)cs2)n1
2.64

Need inhibition, item N=C(N)NCCCC(=O)NCC(N)=O
5.44

Need inhibition, item CC(CCc1ccccc1)NCC(O)c1cccc(C(F)(F)F)c1 (stereo not given)
5.1

----------
# assay-target: Glucose transporter (Leishmania mexicana) (UniProt O61059)
# test-summary: ST_JUDE_LEISH: Cytotoxicity at 2uM final concentration against transgenic Leishmania Mexicana promastigotes LmGT2 that are glucose transport deficient and complemented with the L. Mexicana glucose transporter 2. Activity is measured by DNA content using SYBR green in vitro
# Assay type: functional
Give measured inhibition for each item. Keep answers brief.
Give just the number in %; leave the unit off.

Need inhibition, item O=C(NC1CCCCN(Cc2ccccc2O)C1)c1cc(F)cc(F)c1 (centres undefined)
3.51

Need inhibition, item c1ccc2[nH]c(-c3ccc(-c4ccc(CNCC5CCCO5)cc4)s3)nc2c1 (centres undefined)
5.42

Need inhibition, item C=C1N(C)c2cc([N+](=O)[O-])c(N)cc2C1(C)C
-1.11

Need inhibition, item CN(C)c1ccc(OCCCCCCOc2ccccc2)cc1
1.98

Need inhibition, item COc1ccc(-c2cccc(NC(=O)c3ccc(C#N)cc3)c2)cc1CN(C)CCN(C)C
0.41

Need inhibition, item Cc1nc(-c2nc(NCc3ccncc3)ncc2-c2ccsc2)sc1C
0.31

Need inhibition, item CC(=O)Oc1c(Cl)c(C)nc(C)c1-c1ccc(Oc2ccc(Cl)cc2)cc1
4.45

Need inhibition, item CN1CCC(N2CCN(c3ccc4c(=O)nc(CCc5cccc(F)c5F)n(CC(=O)N(C)Cc5ccc(-c6ccc(C(F)(F)F)cc6)cc5)c4n3)CC2)CC1
6.67

Need inhibition, item O=C(NC(c1ccc(Cl)cc1)c1ccc2cccnc2c1O)c1ccccc1 (centres undefined)
-2.91

Need inhibition, item O=C(/C=C/c1ccc(Cl)cc1)NCCCCCN1CCC(C(=O)Nc2cccc(Cl)c2)CC1
0.58

Need inhibition, item CC(C)CN1CCN(CCNc2c3ccccc3nc3ccccc23)CC1
81.3

Need inhibition, item CCOC(=O)c1cn(CC)c2cc(F)c(OC3CC4CCC3(C)C4(C)C)cc2c1=O (centres undefined)
-3.18

Need inhibition, item Cc1cc(C2CCN(CCCCNC(=O)c3ccc(-c4ccc(C(F)(F)F)cc4)cc3)CC2)c(C)cc1OCCOC1CCCCO1 (centres undefined)
2.21

Need inhibition, item C[C@H](NC(=O)C1CCCC1)C(=O)Nc1ccc(-c2ccc(-c3nc4cc(C(F)(F)F)ccc4[nH]3)cc2)cc1
-1.28

Need inhibition, item COc1cc(C)nc2ccc(NC(=O)c3cc([N+](=O)[O-])cc([N+](=O)[O-])c3)cc12
3.33

Need inhibition, item CN1CCCC(CN2CCN(Cc3cccc(-c4ccc(-c5nc6cc(C(F)(F)F)ccc6[nH]5)cc4)c3)CC2)C1 (centres undefined)
1.86

Need inhibition, item CCCC(CNC(=O)c1cc2c(Cl)cc(Cl)cc2[nH]1)CNc1cc(=O)c2ccccc2[nH]1 (centres undefined)
2.5

Need inhibition, item Cc1noc(C)c1-c1cccc(CNCc2cccc(-c3cccc(-c4nc5ccccc5[nH]4)c3)c2)c1
0.09

Need inhibition, item COCCN1CCC(NCC(C)(C)c2nc(-c3ccc(Cl)c(O)c3)c(-c3ccncc3)[nH]2)CC1
6.49
